- test.summary: growth suppression of yeast trafficking mutant, preliminary HTS, modulators of trafficking downstream of Golgi apparatus project, 1536-format plate, OD 615 nm (AID 637)
- assay.context: yeast transport mutant growth, absorbance 615 nm, 18 h
Active and inactive are the calls of the source. Rule as the data show it: active = inhibition above about 30%; inactive = the rest.
API: response.call in active, inactive

Here are 8 molecules together with their reported answers.
{"molecule": "c1ccc(-c2noc(C3CCCCC3)n2)nc1", "label.class": "inactive"}
{"molecule": "Cn1c(=O)c2c(nc(CN3CCCCC3)n2CCc2ccccc2)n(C)c1=O", "label.class": "inactive"}
{"molecule": "COc1ccc2c(c1)cc(C(=O)O)n2C", "label.class": "inactive"}
{"molecule": "COc1cccc(-c2noc(C3CCCN(C(=O)Cc4ccccc4)C3)n2)c1 (stereo unspecified)", "label.class": "inactive"}
{"molecule": "COc1ccc(Br)cc1C(=O)Nc1nnn(C)n1", "label.class": "active"}
{"molecule": "COC(=O)C1=C(C)NC(=O)C1(NC(=O)CN1CCCC1=O)C(F)(F)F (stereo unspecified)", "label.class": "inactive"}
{"molecule": "CC(=O)OCC(=O)c1ccc2ccn(C(C)=O)c2c1", "label.class": "inactive"}
{"molecule": "O=C(NCc1ccc(F)cc1)C1CCN(C(=O)NCc2ccccc2)CC1", "label.class": "inactive"}

Name the outcome recorded for CCc1nnc(NC(=O)NCN2C(=O)C3C4C=CC(C4)C3C2=O)s1 (stereo unspecified) in the assay.
inactive

Name the outcome recorded for Cc1cc(C)n(-c2nc(C)nc3sc4c(c23)CCC(C)C4)n1 (stereo unspecified) in the assay.
inactive

Name the outcome recorded for O=C1CCCN1CCCNc1ncnc2c1[nH]c1ccc(Cl)cc12 in the assay.
inactive

###

- target.system: Receptor tyrosine-protein kinase erbB-2 (Homo sapiens) (UniProt P04626)
- Sequence (P04626 whole entry, looked up): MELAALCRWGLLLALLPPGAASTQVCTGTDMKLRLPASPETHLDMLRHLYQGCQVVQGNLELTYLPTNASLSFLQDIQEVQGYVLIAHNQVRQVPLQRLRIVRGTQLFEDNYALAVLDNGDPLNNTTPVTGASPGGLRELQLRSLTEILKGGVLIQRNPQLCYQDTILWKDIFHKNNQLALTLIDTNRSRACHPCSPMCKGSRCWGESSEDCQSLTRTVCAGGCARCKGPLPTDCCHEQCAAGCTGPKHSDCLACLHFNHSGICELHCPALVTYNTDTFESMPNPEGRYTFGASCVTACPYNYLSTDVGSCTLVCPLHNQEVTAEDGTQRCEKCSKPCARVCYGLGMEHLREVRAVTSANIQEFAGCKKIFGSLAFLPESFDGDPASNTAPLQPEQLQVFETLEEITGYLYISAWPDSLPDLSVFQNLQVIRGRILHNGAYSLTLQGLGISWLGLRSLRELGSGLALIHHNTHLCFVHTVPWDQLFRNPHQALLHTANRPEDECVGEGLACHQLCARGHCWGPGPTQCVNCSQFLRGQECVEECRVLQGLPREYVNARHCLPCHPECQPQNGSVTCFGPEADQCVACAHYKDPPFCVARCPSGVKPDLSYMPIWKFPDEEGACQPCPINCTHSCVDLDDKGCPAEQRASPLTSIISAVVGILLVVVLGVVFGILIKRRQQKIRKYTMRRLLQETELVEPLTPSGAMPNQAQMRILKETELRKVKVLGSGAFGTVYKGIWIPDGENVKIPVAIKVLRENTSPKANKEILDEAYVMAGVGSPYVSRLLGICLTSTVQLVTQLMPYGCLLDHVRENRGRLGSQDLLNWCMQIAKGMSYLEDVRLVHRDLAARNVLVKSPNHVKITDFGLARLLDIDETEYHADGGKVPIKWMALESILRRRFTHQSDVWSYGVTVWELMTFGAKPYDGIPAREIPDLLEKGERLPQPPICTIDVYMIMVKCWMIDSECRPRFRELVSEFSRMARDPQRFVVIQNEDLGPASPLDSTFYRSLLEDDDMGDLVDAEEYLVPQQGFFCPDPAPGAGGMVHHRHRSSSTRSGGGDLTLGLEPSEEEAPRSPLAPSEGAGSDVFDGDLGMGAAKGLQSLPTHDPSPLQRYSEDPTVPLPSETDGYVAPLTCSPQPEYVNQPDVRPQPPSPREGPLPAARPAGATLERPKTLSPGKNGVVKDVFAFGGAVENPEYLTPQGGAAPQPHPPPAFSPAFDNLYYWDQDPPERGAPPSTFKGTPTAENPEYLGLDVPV
- test.summary: reducers of endogenous Her2 protein level, primary screen, SKBR3 breast tumor cells, AlphaScreen, ATP viability (AID 461);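 also: lower value means less Her2 protein in the cells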
- assay.context: 18-24 h, at 10 µM, active compounds read low
Mark YES for Her2 level under 90%, NO if at or over.

Here are 3 molecules together with their reported answers.
{"molecule": "Cc1nc2nc(Cc3ccccc3)[nH]n2c(=O)c1Cc1ccccc1", "label.class": "NO"}
{"molecule": "CC1Cc2ccccc2N1NC(=O)c1ccc(Cl)c(S(N)(=O)=O)c1 (stereo unspecified)", "label.class": "NO"}
{"molecule": "COc1ccc(CCNC(=O)COc2ccc(S(=O)(=O)N3CCOCC3)cc2)cc1", "label.class": "YES"}

Continue with the next molecule.
In the record for CCOc1ccccc1NC(=O)NC1CCN(CC(=O)Nc2ccc3c(c2)OCCO3)CC1 , is Her2 level less than 90%?
NO

###

- test.summary: growth suppression of PTEN-deleted HCT116, pilot screen, cell-based, HCT116 clonal line, CellTiter-Glo (AID 824);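 also: 0% = 20 µM Hyamine control and 100% = vehicle cell control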
- assay.context: 60 h, at 10 µM, active compounds read low
Inconclusive results are not listed.
Quick list: viability per entry.
# number only, unit % dropped from output

{"compound": "CCCCCC(C)n1[nH]c(=O)c2c(C)cc(C)nc21 (configuration not stated)", "viability (%)": 96.2}

# compound Cc1c(C(=O)NCc2ccccn2)oc2ccc(S(=O)(=O)N3CCOCC3)cc12 ; its viability = 94.4

# compound Cc1nn(Cc2ccccc2)c(N)c1C#N ; its viability = 98.3

###

- test.summary: HUVEC growth inhibition – cell-based, human, primary screen (AID 575);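 also: 100% = median of untreated cell wells with 0.1% DMSO on each plate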
- assay.context: HUVEC proliferation, CellTiter-Glo luminescence, 72 h; at 10 µM; active compounds read low
The source made the active and inactive calls.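 The calls were made as follows: active = viability at or below 30% in both replicate assays; inconclusive = viability at or below 30% in just one of the two assays; inactive = the rest.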
Quick list: viability per entry.

Here is how some molecules turned out for viability.
{"molecule": "Nc1ccc2cn[nH]c2c1", "viability": "82.2% (inactive)"}
{"molecule": "COc1ccc(-c2noc(-c3ccccc3C(=O)NCc3ccco3)n2)cc1", "viability": "107% (inactive)"}
{"molecule": "O=c1c2c3c(sc2n2cnnc2n1CCc1ccccc1)CCCC3", "viability": "57.7% (inactive)"}

# molecule CC(C)C(NC(=O)OCc1ccccc1)C(=O)OCC(=O)NCc1ccco1 (stereo unspecified) ; its viability = 86.2% (inactive)

# molecule CCS(=O)(=O)CCn1c([N+](=O)[O-])cnc1C ; its viability = 105% (inactive)

# molecule Cn1c2c(c(=O)n(C)c1=O)C(c1cccc(Br)c1)C1C(=O)c3ccccc3C1=N2 (stereo unspecified) ; its viability = 72.5% (inactive)

# molecule Cc1nc2sc(C(c3ccco3)N3CCN(c4ccccc4F)CC3)c(O)n2n1 (stereo unspecified) ; its viability = 101% (inactive)

# molecule O=C(Nc1ccccc1C(F)(F)F)c1cc(S(=O)(=O)N2CCOCC2)ccc1F ; its viability = 102% (inactive)

# molecule COC(=O)C1=C(C)n2nnnc2NC1c1ccc(Cl)cc1 (stereo unspecified) ; its viability = 90.4% (inactive)

# molecule O=C(NC1CC1)C1CCN(c2ccc(S(=O)(=O)N3CCOCC3)cc2)CC1 ; its viability = 83% (inactive)

# molecule Cc1cccc(OCC(=O)N2CCC(N3CCCCCC3)CC2)c1 ; its viability = 97.1% (inactive)

###

- test.summary: growth inhibitors of H69AR lung tumor, primary screen, human, duplicate replicates (AID 580);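 also: 100% = mean luminescence of untreated wells and 0% = no signal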
- assay.context: H69AR lung tumor cells viability, ATP luminescence, 72 h; at 10 µM; active compounds read low
measured.property: viability (%)
# number only, unit % dropped from output

{"compound": "CCC(=O)N1CCNC(=O)C1CC(=O)Nc1ccc(C)c(Cl)c1 (stereo unspecified)", "endpoint.unit": "%", "measured.result": 95.8}
{"compound": "CC(NC(=O)Nc1ccccc1)C(c1cccs1)N1CCOCC1 (stereo unspecified)", "endpoint.unit": "%", "measured.result": 110}
{"compound": "CCCN1CCN(CCCNC(=O)Cn2nc(-c3ccc(Cl)cc3)ccc2=O)CC1", "endpoint.unit": "%", "measured.result": 101}
{"compound": "C=Cn1nc(C)c2ccccc2c1=O", "endpoint.unit": "%", "measured.result": 90.1}
{"compound": "O=C(CSc1nnc(-c2ccc(Br)o2)n1Cc1ccccc1)c1ccccc1F", "endpoint.unit": "%", "measured.result": 64.7}
{"compound": "COc1ccc(OCCCC(=O)Nc2ccc3c(c2)OCCO3)cc1", "endpoint.unit": "%", "measured.result": 82.7}

# compound O=C(C1CC1(c1ccccc1)c1ccccc1)N1CCOCC1 (stereo unspecified) ; its viability = 98.8

# compound CCOC(=O)CNC(=O)C(Cc1ccccc1)NS(=O)(=O)c1ccc2c(c1)CCC(=O)N2 (stereo unspecified) ; its viability = 90.7

# compound CC(C)C(NC(=O)c1ccccc1NC(=O)c1ccco1)C(=O)O (stereo unspecified) ; its viability = 91.6

# compound CCOC(=O)C1CCN(c2c(NCCN3CCN(c4ccccc4)CC3)c(=O)c2=O)CC1 ; its viability = 99.1

# compound COc1ccc(C)cc1NC(=O)COCC(=O)O ; its viability = 103

###

- test.summary: inhibitors of the yeast RAM network, pilot screen, dse1pr::URA3 reporter, 5-FOA selection (AID 869);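 also: 0% = DMSO wells with no growth and 100% = 10 µM 1-NA-PP1 with full growth; RAM network block rescues cells from 5-FOA so hits raise OD615 growth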
- assay.context: S. cerevisiae dse1pr::URA3 5-FOA growth, OD615, 2 d; at 10 µM; active compounds read high; strain carries analog-sensitive mutant Cbk1 kinase
Dear colleague, classification is by inhibition, with ranges listed here: one: < 0.9%; two: ≥ 0.9% and < 2%; three: ≥ 2%

{"compound": "Cc1ccccc1-c1noc(-c2cccs2)n1", "label.class": "three"}

Continue with the next compound.
Just checking, what class would you give COc1cc(OC)cc(-c2cc3nc(C)c(CCC(=O)O)c(C)n3n2)c1 here?
one

###

- test.summary: Restrictive medium S. cerevisiae growth inhibition, OD615, pilot screen of yeast lifespan reduction project, restrictive growth control (AID 706);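 also: modified DeaD lifespan yeast strain shifted to restrictive glucose medium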
- assay.context: OD615, 48 h, at 10 µM, active compounds read high
measured.property: growth inhibition (%)
# number only, unit % dropped from output

{"molecule": "Cc1csc2nc(CNS(=O)(=O)c3ccc4c(c3)OCCO4)cn12", "endpoint.unit": "%", "growth inhibition": -5.18}
{"molecule": "O=C(Cn1c(NCCCO)nc2ccccc21)c1cccs1", "endpoint.unit": "%", "growth inhibition": -2.54}
{"molecule": "Nc1c(C(=O)Nc2ccc3c(c2)OCCO3)nnn1CCc1ccccc1", "endpoint.unit": "%", "growth inhibition": 3.6}
{"molecule": "COCCN(CCOC)Cc1c(C)[nH]c2c(C)c(C)ccc2c1=O", "endpoint.unit": "%", "growth inhibition": -9.49}
{"molecule": "Cc1ccccc1NC(=O)CSC(N)=O", "endpoint.unit": "%", "growth inhibition": 14.1}
{"molecule": "CC(=O)c1cccc(NC(=O)C2CCN(S(=O)(=O)c3ccc(F)cc3)CC2)c1", "endpoint.unit": "%", "growth inhibition": 1.16}
{"molecule": "Nc1ccc(O)c(-c2nc3ccccc3s2)c1", "endpoint.unit": "%", "growth inhibition": 5.73}
{"molecule": "Cc1ccc(-n2c(SCC(N)=O)nc3c([nH]c4ccccc43)c2=O)cc1", "endpoint.unit": "%", "growth inhibition": -5.78}

# molecule CCOC(=O)C1=C(C)N=c2s/c(=C\c3ccncc3)c(=O)n2C1c1ccc2c(c1)OCO2 (stereo not drawn) ; its growth inhibition = 23.8

# molecule COc1ccc(NC(=O)C2CCN(S(=O)(=O)c3cccnc3)CC2)cc1Cl ; its growth inhibition = -13.1

This collection of values is drawn from PubChem BioAssay.
